UniProt P0DTD1 data, read-out IC50
API: value field is a number in nM; no unit string.

Below, each entry is followed by its recorded IC50 result.
| structure_notation | units_symbol | IC50 |
| --- | --- | --- |
| Cn1cc(-c2cc([C@@H](N)NC(=O)c3ccccc3CCC(=O)NNC(=O)[C@H]3O[C@@H]3C(=O)O)c3ccccc3n2)cn1 | nM | 1 |
| COC(=O)[C@H]1O[C@@H]1C(=O)NNC(=O)CCc1ccccc1C(=O)N[C@H](N)c1cc(-c2cnn(C)c2)nc2ccccc12 | nM | 2 |
| CCOC(=O)[C@@H]1O[C@H]1C(=O)NNC(=O)CCc1ccccc1C(=O)N[C@H](N)c1cc(-c2cnn(C)c2)nc2ccccc12 | nM | 2 |

Shift focus to the following entry.
Data request: Kindly state the measured IC50 obtained for CCOC(=O)[C@H]1O[C@@H]1C(=O)NNC(=O)CCc1ccccc1C(=O)N[C@H](N)c1cc(-c2cnn(C)c2)nc2ccccc12 with UniProt P0DTD1.
Data returned: 2
